Values compiled from ChEMBL document CHEMBL4011641.

Give MRT for every item shown.
- protocol summary: MRT in BALB/C mouse at 50 mg/kg, ip administered via bolus dose using DMSO formulation measured at 1 to 24 hrs post dose by UV/LC-MS analysis
- Type: ADME, organism-based
- details: in vivo
Give bare numbers, in h.

compound: CN1CCN(CCOC(=O)N(c2cccc(Br)c2)c2nc(SCCN3CCOCC3)nc3c2cnn3CC(Cl)c2ccccc2)CC1 (configuration not stated)
reported metric: MRT
reported value: 33.3

Problem: Look up MRT: ClC(Cn1ncc2c(Nc3cccc(Br)c3)nc(SCCN3CCOCC3)nc21)c1ccccc1 (configuration not stated)
Solution: 19.1

* * *

- protocol summary: physchem
- details: aqueous
- Description: Aqueous solubility of compound at 1 mg after 24 hrs by UV/LC-MS analysis
# if value of solubility at 24 h reaches 4 µg/mL, tag MET; if it stays below, tag NOT MET

Answered examples (3):
compound: CSc1nc(N(C(=O)OCCN2CCN(C)CC2)c2cccc(Cl)c2)c2cnn(CC(Cl)c3ccccc3)c2n1 (stereo not given)
qualitative label: MET
//
compound: CN1CCN(CCOC(=O)N(Cc2ccccc2)c2ncnc3c2cnn3CC(Cl)c2ccccc2)CC1 (stereo not given)
qualitative label: MET
//
compound: CN1CCN(CCOC(=O)N(Cc2ccccc2Cl)c2ncnc3c2cnn3CC(Cl)c2ccc(Br)cc2)CC1 (stereo not given)
qualitative label: NOT MET

Problem: Threshold query (solubility at 24 h >= 4 µg/mL) on CSc1nc(N(C(=O)OCCN2CCN(C)CC2)c2cccc(Br)c2)c2cnn(CC(C)c3ccccc3)c2n1 (stereo not given)
Solution: MET

Problem: Now consider CSc1nc(Nc2cccc(Br)c2)c2cnn(CC(C)c3ccccc3)c2n1 (stereo not given) .
Solution: NOT MET

Problem: Now consider CCC(CN1CCN(C)CC1)OC(=O)N(c1cccc(Br)c1)c1nc(SC)nc2c1cnn2CC(C)c1ccccc1 (stereo not given) .
Solution: NOT MET

Problem: Now consider `CSc1nc(N(C(=O)OCCN2CCN(C)CC2)c2cccc(Cl)c2)c2cnn(CCc3ccccc3)c2n1` .
Solution: MET

Problem: Now consider ClC(Cn1ncc2c(Nc3cccc(Br)c3)nc(SCCN3CCOCC3)nc21)c1ccccc1 (stereo not given) .
Solution: NOT MET

Problem: Now consider CN1CCN(CCOC(=O)N(c2cccc(Br)c2)c2nc(SCCN3CCOCC3)nc3c2cnn3CC(Cl)c2ccccc2)CC1 (stereo not given) .
Solution: MET

Problem: Now consider ClC(Cn1ncc2c(NCc3ccccc3)ncnc21)c1ccccc1 (stereo not given) .
Solution: NOT MET
